Biological target: T1, hnRNP H1-His6 (UniProt P31943 1-449)
T1 sequence: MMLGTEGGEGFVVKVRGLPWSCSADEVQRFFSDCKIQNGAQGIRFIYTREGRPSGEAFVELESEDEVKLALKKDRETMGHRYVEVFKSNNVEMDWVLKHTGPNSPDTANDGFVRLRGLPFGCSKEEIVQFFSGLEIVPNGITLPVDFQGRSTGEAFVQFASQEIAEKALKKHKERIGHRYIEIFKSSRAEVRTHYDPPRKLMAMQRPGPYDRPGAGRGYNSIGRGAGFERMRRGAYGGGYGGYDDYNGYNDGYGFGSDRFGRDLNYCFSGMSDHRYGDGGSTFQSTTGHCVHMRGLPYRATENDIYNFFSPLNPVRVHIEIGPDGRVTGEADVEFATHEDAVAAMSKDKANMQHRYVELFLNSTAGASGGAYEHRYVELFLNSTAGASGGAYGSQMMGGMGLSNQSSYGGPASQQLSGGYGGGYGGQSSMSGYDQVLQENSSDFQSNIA
Experiment: EMSA
metric: pKd
To interpret pKd, take it as minus log10 of a concentration measured in moles per litre.

Quick one: pKd for GGGGCCGGGGCCGGGGCCGGGGCCGGGGCCGGGGCCGGGGCCGGGGCC (structured_RNA) [r(G4C2)8 (32P)] ?
7.19
